The values you see were collected from PubChem BioAssay (NCI).

test system: DMS 114 small cell lung; assay: NCI tumour cell line growth inhibition, 48 h
observed.property: TGI

Answered cases to consult:
compound | target.or.system | TGI
c1ccc(N=c2nc(N3CCOCC3)ss2)cc1 | DMS 114 small cell lung | 30.2 µM
O=C(/C=C/c1ccccc1Cl)c1cccc2ccccc12 | DMS 114 small cell lung | 15.2 µM
CCC12CCCNC1c1c(n(C)c3ccccc13)C(C(=O)OC)C2 (centres undefined) | DMS 114 small cell lung | 152 µM

Read the next record carefully.
Request: Requested field: TGI. Item: CCCC(N)C(=O)c1ccccc1 (centres undefined)
Result: > 100 µM

====

test system: NCI-H522 lung; assay: NCI tumour cell line growth inhibition, 48 h; in the data active means GI50 below about 0.43 µM; inactive means the rest
I would appreciate it if you answered using one of these outcomes: active, inactive

Some entries whose results are on file:
molecule | target.or.system | assigned.class
O=C(NNc1ccc(F)cc1)C1CCC(CNS(=O)(=O)c2ccc(Cl)c(Cl)c2)CC1 (centres undefined) | NCI-H522 lung | inactive
CSc1ccc2c(c1)N(CCC1CCCCN1C)c1ccccc1S2 (centres undefined) | NCI-H522 lung | inactive
CCOC(=O)c1ccc2c(c1)nc(/C=C/c1ccc(Cl)cc1)n2-c1cc(C(C)(C)C)[nH]n1 | NCI-H522 lung | inactive
CCCCCc1cc[n+](CC(=O)c2ccc([N+](=O)[O-])cc2)cc1 | NCI-H522 lung | inactive
COc1cc2nc(-c3ccc(Cl)cc3)cc(OCCCN3CCCC3)c2cc1OC | NCI-H522 lung | inactive
O=C1C(=O)c2ccccc2C(O)=C1CCCc1ccc(C2CCCC2)cc1 | NCI-H522 lung | inactive
CC(=O)[CH-]C(=O)c1ccccc1.CC(=O)[CH-]C(=O)c1ccccc1.CC[C@H](/C=C/C(C)[C@H]1CCC2[C@@H]3CC=C4C[C@@H]([O-])CC[C@]4(C)C3CC[C@@]21C)C(C)C.CC[O-].[Ti+4] (some centres undefined) | NCI-H522 lung | inactive
O=C(O)C1C2C=CC(C2)C1C(=O)O (centres undefined) | NCI-H522 lung | inactive
Nc1nc2c(nnn2C2OC(CO)C(O)C2O)c(=O)[nH]1 (centres undefined) | NCI-H522 lung | inactive
CC[C@@H](C(=O)[C@H](C)[C@H](O)[C@@H](C)[C@H]1O[C@H]([C@@H](CC)C(=O)O)CC[C@H]1C)C1O[C@]2(C=C[C@@H](O)[C@]3(CC[C@@](C)([C@H]4CC[C@](O)(CC)[C@H](C)O4)O3)O2)[C@H](C)C[C@@H]1C (some centres undefined) | NCI-H522 lung | active

Request: How did this test come out for Clc1nc(Cl)c2c3c(sc2n1)CCCC3 ?
Result: inactive

Request: How did this test come out for C=C1CC[C@@H]2[C@](C)(COC(C)=O)[C@H](OC(C)=O)CC[C@@]2(C)[C@@H]1CC(Nc1ccc(S(=O)(=O)Nc2cc(C)on2)cc1)C1=CCOC1=O (some centres undefined) ?
Result: inactive

Request: How did this test come out for Cc1cccc2nc3cccc(C(=O)NCCNCCNCCNC(=O)c4cccc5nc6cccc(C)c6nc45)c3nc12 ?
Result: active

Request: How did this test come out for CCCCCCCCCCCCCCCC(=O)N[C@H](/C=C/[C@H](O)CCCCCCCCCCCCC)CO ?
Result: inactive

====

Provide the recorded TGI for the entries that follow.
tested on: SF-539 CNS; assay: NCI tumour cell line growth inhibition, 48 h
Numbers only, in µM.

Answered cases to consult:
compound | unit.annotation | TGI
CC(=O)Oc1c2c(c(CC=C(C)C)c3c1C(=O)C1=C[C@@H]4CC5C(C)(C)OC(C/C=C(/C)C(=O)O)(C4=O)[C@@]15O3)OC(C)(CCC=C(C)C)C=C2 (stereo not given in full) | µM | 0.252
CC(C)(CCN=C(N)Nc1ccccn1)c1ccc(C(F)(F)F)cc1 | µM | 29.4

Parameter requested: TGI. Apply to each item below.
1. CCN(Cc1ccccc1Cl)c1ccc(CO)c(Cl)c1
2. COc1cccc(NC(=O)C(C)(C)C)c1SSc1c(NC(=O)C(C)(C)C)cccc1OC
3. O=C(/C=C/c1ccccc1Cl)c1cccc2ccccc12

Result:
1: 29; 2: 45.5; 3: 23.3

====

test system: KM12 colon; experiment: NCI tumour cell line growth inhibition, 48 h
# cutoff 30 µM applies to TGI; >= gives Fulfilled, < gives Not fulfilled

Some entries whose results are on file:
compound | assigned.class
O=C1CCCCC=C1C[N+](=O)[O-] | Fulfilled
COc1cc(C(=O)C2C(=O)c3ccccc3C2C2(O)c3ccccc3CC2C(O)c2cc(OC)c(OC)c(OC)c2)cc(OC)c1OC (stereo not drawn) | Fulfilled
Cc1cc(C)nc(SCC(=O)OC2CC(C)CCC2C(C)C)n1 (stereo not drawn) | Fulfilled
CC(=O)[CH-]C(=O)c1ccccc1.CC(=O)[CH-]C(=O)c1ccccc1.CC1(C)OCC(C2OC3OC(C)(C)OC3C2[O-])O1.CC1(C)OCC(C2OC3OC(C)(C)OC3C2[O-])O1.[Ti+4] (stereo not drawn) | Fulfilled
Cc1cc(=O)n2c3c(c4c(cc13)c(CO)cc(=O)n4C)OC2 | Fulfilled
Cc1ccc(C2N=C(N)NC3=C2CCOc2c3ccc3ccccc23)cc1 (stereo not drawn) | Fulfilled
CO[C@]12C=C/C(=C(/C(=O)OCc3cccnc3)C(=O)CCCCCCCC[C@@]3(OC)C=C/C(=C(/C(=O)OCc4cccnc4)C(=O)CCCCCCCC1)O3)O2 | Not fulfilled
CCC(C)[C@H](NC(=O)NC(=O)NC(=O)CI)C(=O)OC (stereo partly drawn) | Fulfilled
OC(c1cc2ccccc2[nH]1)C1(c2cccnc2)SCCCS1 (stereo not drawn) | Fulfilled
C[N+](C)(CCCCCC[N+](C)(C)CCCN1C(=O)c2cc3ccccc3cc2C1=O)CCCN1C(=O)c2cc3ccccc3cc2C1=O | Fulfilled

Request: Dear colleague, could you confirm whether O=C(Nc1nc(C23CC4CC(CC(C4)C2)C3)cs1)c1cc2cc(Cl)ccc2oc1=O has TGI at or above 30 µM?
Result: Fulfilled

Request: Dear colleague, could you confirm whether O=C(N/C(=C\c1ccc(/C=C(\NC(=O)c2ccccc2)c2nc3cc(Cl)ccc3[nH]2)cc1)c1nc2cc(Cl)ccc2[nH]1)c1ccccc1 has TGI at or above 30 µM?
Result: Fulfilled

Request: Dear colleague, could you confirm whether CCOC(=O)C(=[N+]=[N-])C(=O)CN1C(=O)C2CC(C)=C(C)CC2C1O (stereo not drawn) has TGI at or above 30 µM?
Result: Fulfilled

Request: Dear colleague, could you confirm whether CCOC(=O)CSc1nnc(CSc2nc(-c3ccccc3)c(-c3ccccc3)[nH]2)n1-c1ccccc1 has TGI at or above 30 µM?
Result: Fulfilled

Request: Dear colleague, could you confirm whether S=C(N/N=C/c1ccccn1)Nc1ccc(Cl)cc1 has TGI at or above 30 µM?
Result: Fulfilled

Request: Dear colleague, could you confirm whether Cc1cccc2nc3cccc(C(=O)NCCNCCNCCNC(=O)c4cccc5nc6cccc(C)c6nc45)c3nc12 has TGI at or above 30 µM?
Result: Not fulfilled

Request: Dear colleague, could you confirm whether CCN(Cc1ccccc1Cl)c1ccc(CO)c(Cl)c1 has TGI at or above 30 µM?
Result: Not fulfilled

====

system: DU-145 prostate; experiment: NCI tumour cell line growth inhibition, 48 h
observed.property: TGI

Answered cases to consult:
compound | recorded.measurement
N#CC1(Nc2ccc(-c3ccc(NC4(C#N)CCCC4)cc3)cc2)CCCC1 | > 100 µM
COc1ccc(P2(=S)SP(=S)(c3ccc(Cl)cc3)S2)cc1 (stereo not given) | > 100 µM
COc1ccc2c(Cc3c4ccccc4cc4ccccc34)cncc2c1O | > 22.4 µM

Parameter requested: TGI. Apply to each item below.
1. COc1cc2cc(C(=O)N3CC(CCl)c4c3cc(NCCN)c3ccccc43)[nH]c2c(OC)c1OC (stereo not given)
2. CN(C)CC1CCC/C(=C\c2ccc(OC(=O)/C=C/c3ccccc3)cc2)C1=O (stereo not given)
3. Cc1ccc(C2N=C(N)NC3=C2CCOc2c3ccc3ccccc23)cc1 (stereo not given)
4. CCOC(=O)NC(C(=O)OCC)(N1CCN(c2cc3c(cc2F)c(=O)c(C(=O)O)cn3CC)CC1)C(F)(F)F (stereo not given)

Result:
1.07 µM
7.11 µM
> 85.4 µM
> 100 µM

Parameter requested: TGI. Apply to each item below.
1. Cc1ccc(S(=O)(=O)N2c3ccccc3[C@H]3CCC=C[C@H]32)cc1
2. NC(=O)C(=CNC(=S)Nc1ccc(Cl)c(Cl)c1)C(N)=O
3. COC(=O)C1(C(=O)OC)N=C(C)OC1c1ccccn1 (stereo not given)

Result:
["> 100 µM", "> 100 µM", "> 100 µM"]

====

Provide the recorded TGI for the entries that follow.
tested on: MDA-N; assay: NCI tumour cell line growth inhibition, 48 h

Answered cases to consult:
compound | TGI
c1ccc(-c2nnc(SCc3c[nH]c4ccccc34)n2-c2ccccc2)cc1 | > 100 µM
Nn1c(CCCCCCCCc2nnc(COc3ccccc3)n2N)nnc1COc1ccccc1 | > 100 µM
COC(=O)C(C(=O)C(=O)Nc1ccccc1C#N)c1nc2ccc([N+](=O)[O-])cc2[nH]c1=O (stereo not given) | > 100 µM
Cc1c(-c2ccccc2)c(C#N)c2nnn(C3CCCCC3)c(=O)n12 | > 100 µM
COc1cc2c(cc1OC)CN1CCCc3cc(OC)c(OC)cc3C1C2 (stereo not given) | 42.4 µM
CC(=O)C=NCC(=O)O | > 100 µM
N=C(N)SCc1cc(Cl)cc(Cl)c1O | 33.1 µM
CCCCCCCNC(P(=O)(O)O)P(=O)(O)O | > 100 µM

Parameter requested: TGI. Apply to each item below.
1. O=c1cc(N2CCCC2)[nH]c(=O)n1-c1ccc(F)cc1
2. Cc1ccc(Nc2[nH]c(=O)[nH]c(=O)c2C)cc1Cl
3. CCOC(=O)C(=[N+]=[N-])C(=O)CN1C(=O)C2CC(C)=C(C)CC2C1O (stereo not given)
4. CC(C)=CCC1=C(OCC(=O)O)C(=O)c2ccccc2C1=O

Result:
["> 100 µM", "> 100 µM", "> 100 µM", "34.8 µM"]

Parameter requested: TGI. Apply to each item below.
1. COc1ccc2c(c1)C1OCCNC1CC2 (stereo not given)
2. O=C(OC[C@H]1C[C@H]2C(=O)CCC[C@H]2O1)c1ccccc1
3. CSc1c(C(=O)Nc2ccc(C)cc2)c(N)n(N)c(=O)c1C#N
4. CCOP(=O)(Nc1ccccc1P(=O)(OCC)OCC)OCC

Result:
1. > 100 µM
2. > 100 µM
3. > 100 µM
4. > 100 µM

Parameter requested: TGI. Apply to each item below.
1. CC(=O)OC12c3ccccc3-c3ccccc3C1C(C(=O)O)C2(Cl)C(=O)O (stereo not given)
2. O=C(Nc1nc(C23CC4CC(CC(C4)C2)C3)cs1)c1cc2cc(Cl)ccc2oc1=O

Result:
> 10 µM
> 100 µM
